molecular target: Pantothenate synthetase (Mycobacterium tuberculosis (strain ATCC 25618 / H37Rv)); experiment: Coupled enzyme confirmation of inhibitors against recombinant Mtb PanC (AID 375); conditions: coupled enzyme assay; at 10 µM, stronger effect = higher value
Label Fulfilled when inhibition >= 2%; otherwise Not fulfilled.

Known results for molecules:
COc1cc(NC(=O)c2nccnc2C(=O)O)cc(OC)c1: Fulfilled
CC(=O)Nc1nnc(SCC(=O)NCC2CCCO2)s1 (stereo not drawn): Not fulfilled
O=C(CN1C(=O)CC(c2ccccc2)=Nc2ccccc21)NCc1ccco1: Not fulfilled
Nc1nc2n(n1)C(c1cccc(Br)c1)CC(c1ccccc1)N2 (stereo not drawn): Not fulfilled
COc1ccc(C)cc1NC(=O)CNC(=O)Cn1ccc2ccccc2c1=O: Fulfilled

Task: Can CCOC(=O)C1CCCN(C(=O)c2ccc(CS(=O)(=O)Cc3ccccc3C)o2)C1 (stereo not drawn) be said to have inhibition at or above 2%?
Output: Fulfilled

Task: API: above_or_equal(metric=inhibition, cutoff=2%) for item CCn1c(SCC(=O)Nc2nccs2)nnc1-c1ccncc1
Output: Fulfilled

Task: Could you tell me if the measured inhibition of COC(=O)c1ccc(C2NC(C(=O)O)CS2)cc1 (stereo not drawn) reaches 2% or more?
Output: Not fulfilled

Task: Kindly determine if inhibition recorded for CCCS(=O)(=O)N1CCC(C(=O)N2CCCC2)CC1 is above or exactly 2%.
Output: Fulfilled

Task: Identify whether the reported inhibition of the following molecule is 2% or greater: CCOC(=O)C1CCN(c2c(N3CCCC(C(=O)OCC)C3)c(=O)c2=O)CC1 (stereo not drawn)
Output: Fulfilled

Task: Determine whether measured inhibition meets or exceeds 2% for CCCS(=O)(=O)N1CCCC(C(=O)NC2CCCC(C)C2C)C1 (stereo not drawn)
Output: Not fulfilled

Task: Does the reported inhibition for CCCCCCCCCCCCCCCC(O)C(N)CO (stereo not drawn) fall at or above the 2% mark?
Output: Not fulfilled

Task: Is inhibition at least 2%? Consider O=C(Nc1ccccc1C(=O)NCC1CCCO1)c1ccco1 (stereo not drawn)
Output: Not fulfilled

Task: Check the entry Cc1ccc(-n2c(=O)c3sccc3n(CC(=O)NCc3ccco3)c2=O)cc1 : does inhibition equal or exceed 2%?
Output: Not fulfilled

Task: Entry CCNc1ccc(P(=S)(N(C)C)N(C)C)cc1 : is its inhibition no less than 2%?
Output: Not fulfilled

Task: Given the entry OC(CCN1CCOCC1)(c1ccc(Cl)cc1)C1CCCCC1 (stereo not drawn) , answer whether its inhibition meets or surpasses 2%.
Output: Not fulfilled

Task: API: above_or_equal(metric=inhibition, cutoff=2%) for item CCOC(=O)CN1CC23C=CC(O2)C(C(=O)NC2CCCC2)C3C1=O (stereo not drawn)
Output: Fulfilled

Task: Quick check: does Cn1c(CNc2nc(-c3ccccc3)cs2)nnc1SCC(=O)N1CCc2ccccc21 have inhibition greater than or equal to 2%?
Output: Not fulfilled
